measurement target: Bile acid receptor (Homo sapiens)
protocol description: Agonist activity at recombinant human GST-tagged FXR LBD (193 to 472 residues) expressed in baculovirus-infected insect cells assessed as recruitment of biotinylated SRC1 peptide measured after 1 hr by Alphascreen assay relative to CDCA
This section presents molecules with their documented Efficacy values.
quantity: Efficacy (%)

molecule: CC[C@H]1[C@@H](O)[C@@H]2[C@H](CC[C@]3(C)[C@@H]([C@H](C)CCNC(=O)OCc4ccccc4)CC[C@@H]23)[C@@]2(C)CC[C@@H](O)C[C@@H]12
unit spec: %
number: 130

molecule: CC[C@H]1[C@@H](O)[C@@H]2[C@H](CC[C@]3(C)[C@@H]([C@H](C)CCC(=O)O)CC[C@@H]23)[C@@]2(C)CCC(C)C[C@@H]12 (stereo partly drawn)
unit spec: %
number: 49

molecule: CC[C@H]1[C@@H](O)[C@@H]2[C@H](CC[C@]3(C)[C@@H]([C@H](C)CCC(C)=O)CC[C@@H]23)[C@@]2(C)CC[C@@H](O)C[C@@H]12
unit spec: %
number: 263

Data provenance: ChEMBL document CHEMBL4138253
